- TARGET OF ASSAY: Inadl_7, Q8NI35
- Sequence (Q8NI35 1219-1332): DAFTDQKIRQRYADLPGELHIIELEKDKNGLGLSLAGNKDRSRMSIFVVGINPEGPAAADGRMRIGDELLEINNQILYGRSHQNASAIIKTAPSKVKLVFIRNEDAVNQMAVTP
- METHOD SUMMARY: holdup assay
- Set-up: key: below the threshold = too weak to quantify, mostly under pKd 3.1 to 4
- MEASUREMENT CONTEXT: plain residues with an end cap or a label only (N-terminal biotin on a linker: ttds)
ENDPOINT: pKd

PSRDRKETSI [RALBP1, Q15311] | 4.36
SRSRRRETAL [HPV33-E6, P06427] | below the threshold
SGGKRKETLV [NET1, Q7Z628] | below the threshold
SHSSKGETAV [FZD7, O75084] | 4.99
SSIDLWETAL [SLC15A5, A6NIM6] | below the threshold

(Q) Find the recorded pKd belonging to PPRQRSETQV [HPV82-E6, Q9IR59] and report it.
(A) below the threshold

(Q) Cool, now KLVIKTETTV [RASSF6, Q6ZTQ3]
(A) 4.51

Origin of values: paper PMC9482650
